Quick reference for pIC50 among some compounds
# subjectOfTest: Prothrombin (Homo sapiens)
# testSummary: Inhibition of human plasma thrombin using pyroGlu-Pro-Arg-p-NA.HCl as substrate preincubated for 15 mins prior substrate addition measured for 10 mins by spectrophotometry
pIC50: −log10 of the molar value.

| smi | subjectOfTest | pIC50 |
| --- | --- | --- |
| COc1ccc2cc(C(=O)Nc3ccc(-c4cccc([N+](=O)[O-])c4)cc3)ccc2c1 | Prothrombin (Homo sapiens) | < 4.21 |
| COC(=O)c1cccc(-c2ccc(NC(=O)c3ccc4cc(OC)ccc4c3)cc2)c1 | Prothrombin (Homo sapiens) | < 4.21 |
| COC(=O)c1cccc(-c2ccc(NC(=O)c3ccc4cc(C(N)=O)ccc4c3)cc2)c1 | Prothrombin (Homo sapiens) | < 3.90 |
| COc1cccc(-c2ccc(NC(=O)c3ccc4cc(C(N)=O)ccc4c3)cc2)c1 | Prothrombin (Homo sapiens) | < 4.21 |
| NC(=O)c1ccc2cc(C(=O)Nc3ccc(-c4cccc(C(F)(F)F)c4)cc3)ccc2c1 | Prothrombin (Homo sapiens) | < 4.21 |
| COc1cccc(-c2ccc(NC(=O)c3ccc4cc(OC)ccc4c3)cc2)c1 | Prothrombin (Homo sapiens) | < 4.21 |
| COc1cc(NC(=O)c2ccc3cc(C(=N)N)ccc3c2)cc(OC)c1 | Prothrombin (Homo sapiens) | < 4.21 |
| [H]/N=C(\N)c1ccc2cc(C(=O)Nc3ccc(CN)cc3)ccc2c1 | Prothrombin (Homo sapiens) | < 4.21 |
| N=C(N)c1ccc2cc(C(=O)Nc3ccccc3)ccc2c1 | Prothrombin (Homo sapiens) | 4.25 |
| COc1ccc2cc(C(=O)Nc3ccc(-c4cccc(C(F)(F)F)c4)cc3)ccc2c1 | Prothrombin (Homo sapiens) | < 4.21 |
| N=C(N)c1ccc(/C=C2/N=C(c3ccccc3)OC2=O)cc1 | Prothrombin (Homo sapiens) | < 4.00 |
| COC(=O)c1cccc(-c2ccc(NS(=O)(=O)c3ccc4cc(OC)ccc4c3)cc2)c1 | Prothrombin (Homo sapiens) | < 4.21 |
